- MEASUREMENT PROTOCOL: yeast display, Sf9 membrane polyspecificity reagent, FACS + sequencing; frameworks hold sequencing errors
MEASURED PARAMETER: polyreactivity (PSR sort gate)

monomer_sequence=QVQLVETGVGLVKAGGSLRLSSAASGYIFYYYAMGWYRQERGKERELVAAISTSDTRTFYADSVKGRFSISRDNAKNTVYLQMNSLKPEDTAVYYCAASLYICGPNYGYEYWGLGTQVTVSS measured_parameter="polyreactivity (PSR sort gate)" endpoint_value="low polyreactivity"
monomer_sequence=QVQLVESGGGLVQAGGSLRLSCAASGFTFNWNDMGWYRQAPGKERELVAAISGGASTYYADSVKGRFTISRDNAKNTVYLQMNSLKPEDTAVYYCAADLDEWGYLFVYWGQGTQVTGSS measured_parameter="polyreactivity (PSR sort gate)" endpoint_value="low polyreactivity"

* * *

- MEASUREMENT PROTOCOL: yeast display, Sf9 membrane polyspecificity reagent, FACS + sequencing; frameworks hold sequencing errors
MEASURED PARAMETER: polyreactivity (PSR sort gate)

monomer_sequence=QVQLVESGGGLVQAGGSLRLSCAASGIIFDSNVMGWYRQAPGKERELVAAISRSGSRTYYADSVKGRFTISRDNSKNTVYLEMNSLKPEDTAVYYCATDSHTADEYEHWGQGTQVTVSS endpoint_value="high polyreactivity"
monomer_sequence=QVQLVESGGGLVQAGGSLSLSCAASGIIFYYYAMGWYRQAPGKERELVAAISTSGGRTYYADSVKGRFTISRDNAKNTVYLQMNSMKPEDTAVYYCAADYLKGEEDYWGQGTQVTVSS endpoint_value="low polyreactivity"
monomer_sequence=QDQHVESGGGLVQAGGSLRLSFADSGITFDYYAMGWYRQAPGKERELVAAISVSGGDTYYADSVKGRFTISRDNAKNTVYLQMNRLKPQDTSVYYCAAEEVSPRWYDYWGQGTQVTVSS endpoint_value="low polyreactivity"
monomer_sequence=QVQLVESGGGLVQAGGSLRLTCAASGLTFNHNAMGWCRQAPGKERELVAAISRRGGSTYYADSVKGRFTISRDNAKNTVYLQMNSLKPEDTAVYYCAARRAWSWKIYDYWGQGTQVTVSS endpoint_value="high polyreactivity"
monomer_sequence=QVQLVESGGGLVQAGGSLRLSCAASGSIFPLYAMGWYRQAPGKERELVADITVSGGSTYNADSVKGRFTISRDNAKNTVYLQMNSLKPEDTAVYYCNADDRSPFPDYWWYPYDYDYWGQGTQVTVSS endpoint_value="low polyreactivity"
monomer_sequence=QVQLVESGGGLVQAGGSLRLSCAASGFTFTGYAMGWYRQAPGKERELVAAISSSGGSTYYADSVKGRFTISRDNAKNTVYLQMNSLKPEDTAVYYCNARISDAHYQCNYFLVLYDYWGQGTQVTVSS endpoint_value="low polyreactivity"
monomer_sequence=QVQLVESGGGLVQAGGSLRLSCAASGRIFRYYAMGWYRQAPGKERELVAAISSGVGNTYYADSVKGRFTISRDNAKNTVYVQMNSLKPEDTAVFYCKAKWRKFGTVRYDYWGQGTQVTVSS endpoint_value="high polyreactivity"
monomer_sequence=QVQLVESGGGLVQAGGSLRLSCAASGIIFASYAMGWYRQAPGKERELVAAITWDGDSTYYADSVKGRFSISRDNAKNTVYLQRNSLKPEDTAVYYCAADGVYVGFYGYDYDYWGQGTQVTVSS endpoint_value="low polyreactivity"
monomer_sequence=QVHLVESGGGLVQAGGSLRLSSAASGSIFDSNAMGWYRQAPGKERELVAAINSTDITKYADSVKGRFTISRDNAKNTVYLQMNSLKPEDTAVYYCAKDQSLTYSSLWGYDYWGQGTQVTVSS endpoint_value="low polyreactivity"
monomer_sequence=QVQLVESGGGLVQAGGSLRLSCAASGHIFIRYAMGWYRQAPGKDRELVAASTGSGGSTYYADSVKGRFTISRDYAKNTVYLQMNSLKPEDTAVYYCAARTSKKYVPYDYWGQGTQVTVSS endpoint_value="high polyreactivity"
monomer_sequence=QGQLEESGGGLVQAGGSLRLSCAASGNTFRSYAMGSYRQAPGKERELVAAISGRGGSTYYADSVKGRFTISRDNAKYTVFVQLNSLKPDDTAVYYCAAESRRVNYANDDWGQGTQVTVSS endpoint_value="high polyreactivity"
monomer_sequence=QFQLVESGGGLVQAGGSLRLSCAASGNILPAYAMGLYRQAPGKERELVAAISKSGGRTYYADSVKGRFTISLDNAKNTVYLQMNSLKPEDTAVYYALLTVLRAVPYTVRYDYWGQGTQVNVSS endpoint_value="high polyreactivity"
monomer_sequence=QVQLVESAGGLVQAGGSLRLSCAASGNTFPPYPMGWYRQAPGKERELVAAISCGGRTYYADSVKGRFTISRDNAKNTVYLQMNSLKPEDTAVYYCAVYVPNYYSYHYDYWGQGTQVTVSS endpoint_value="high polyreactivity"
monomer_sequence=QVQLVESGGGLVQAGGSLRLSCAASGITFRRNAMGWYRQAPGKERELVAGITRGGTTKYADSVKGRFTISRDNAKNTVYLQMNSLKPEDTAVYYCNAVTRRHKYYYWGQGTQVTVSS endpoint_value="high polyreactivity"
monomer_sequence=QVHLVDSGGGLVQAGGSLRLSCAASGFNFTYYGMGSYRQAPGKERELVAAISESCGSTYYADSVKGRFTISRDNAKNTVYLQMTSLKPEDTAVYYCAADVTKRASRDYYWGQGTQVTVSS endpoint_value="high polyreactivity"
monomer_sequence=QVQLVESVGGLVQAGGSLRLSCAASGSTFVPYAMGWYRQAPGKERELVAAITTSGGNTYYADSVKGRFTISRDNAKNTVYLQMNSLKPEDTAVYYCAADTYRSFDYWGQGTQVTVSS endpoint_value="low polyreactivity"
monomer_sequence=QVQLQESGGGQVQAGGSLRLSCAASGTISDSGLMGWYRQAPGKERELVAGISSGGITNYADSVKGRFTISRDNAKNTVYLQMNILKPEDTAVYWGQGTQVTVSI endpoint_value="low polyreactivity"
monomer_sequence=QVQLVESGGGLVQAGGSLRLSSAASGSTFKVNARGWYRQAPGKERELVAGITSSDSTKYADSVKGRFTISRDNAKNTVYLQMNSLKPEDTAVYYSAAETKFSRTSEGDYWGQGTQVTVSS endpoint_value="low polyreactivity"
monomer_sequence=QVQLGESGGGLVQAGGSLRLSCAASGRTFVDNHMGWYRQAPGKERELVAAITWRGGGTYYADSVKGRFTISRYNAKNTVYLQMNSLKPEDTAVYYSAADQRPPFVEPRGLSTGEFDYWGQGTQVTVSS endpoint_value="low polyreactivity"
monomer_sequence=QVQLVESGGGLVQAGGSLRLSCAASGYTFFRNTMGWYRQAPGKERELVAVITKSGGSTYYADSVKGRFTISRDNAKNTVYLQMNSLKPEDTAVYYCNAVNALRNTEYNYWGQGTQVTVSS endpoint_value="high polyreactivity"
monomer_sequence=QVLLVESGGGIVQAGGSLRLSCAASGSIIEPNAMGWYRQEPGQEREFVAAISGSGGSTYYADSVKGRFTSSRDNAKNTVYLQRNSLKPEYSAVYYCNALYLRTTPQDYDYWGQGTQVTVSS endpoint_value="high polyreactivity"

Data provenance: the nanobody polyreactivity screen of Harvey et al. (2022)
